Assay: NCI Yeast Anticancer Drug Screen. Data for the rad14 strain (AID 159)
Settings: S. cerevisiae rad14 strain growth inhibition; at 100.0 µM
Description: Growth inhibition of yeast strains with defined genetic alterations is measured as a screen for potential anti-cancer activity. Selected strains with alterations in DNA damage repair or cell cycle control were exposed to compounds and growth inhibition was measured relative to vehicle treated controls. The strain used in this assay is rad14
About 79,000 compounds went through this panel and 15% of them were active in at least one assay; those are over-represented in the sample as a whole. The source made the active and inactive calls. Rule as the data show it: active = growth inhibition above about 70%; inactive = the rest.
Please reply with one of these outcomes: active, inactive

[ask] Outcome logged for `CN(CCc1ccc(Br)cc1)CCN1CCCCC1` in this assay:
[reply] active

[ask] Could you kindly confirm the outcome this assay logged for `CC[C@](O)(C(=O)O)c1cc2n(c(=O)c1CO)Cc1cc3ccccc3nc1-2` ?
[reply] active

[ask] What outcome does the record of this test show for CC1CCCN(CCc2ccccc2)CC1 (stereo unspecified) ?
[reply] inactive

[ask] // param item: `NNc1ccccc1Cl` ; yields the recorded call
[reply] active

[ask] I would be grateful if you could indicate the recorded call for `CC[C@@]1(O)C(=O)OCc2c1cc1n(c2=O)Cc2cc3ccccc3nc2-1` .
[reply] active

[ask] Call for entry CCNC(=O)OCC1C2=C(C(=O)C(C)=C(N)C2=O)N2CC3C(N3C)C12OC (stereo unspecified) :
[reply] active
